Biological target: His tagged ERK2 (Homo sapiens)
Sequence (P28482 whole entry): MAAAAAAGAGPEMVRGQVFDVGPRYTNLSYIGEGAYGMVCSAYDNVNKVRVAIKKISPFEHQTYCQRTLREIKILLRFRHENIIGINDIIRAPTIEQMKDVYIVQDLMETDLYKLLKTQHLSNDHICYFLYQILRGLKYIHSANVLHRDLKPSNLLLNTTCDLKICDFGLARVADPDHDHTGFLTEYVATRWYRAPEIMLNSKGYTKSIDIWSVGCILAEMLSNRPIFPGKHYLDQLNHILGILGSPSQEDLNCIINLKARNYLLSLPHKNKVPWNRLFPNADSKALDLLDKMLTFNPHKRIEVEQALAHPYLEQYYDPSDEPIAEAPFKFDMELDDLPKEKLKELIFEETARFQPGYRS
Test: Extracellular signal Regulated Kinase 2 inhibition assay (ERK2), radioactive filtermat format
Format: biochemical
Settings: 10 μM compound
TEST READOUT: inhibition at 10 µM (%)

Consider the following illustrative entries.
compound="NC(=O)[C@]1(N)CC2CC1n1c3ccccc3c3c4c(c5c6ccccc6n2c5c31)C(=O)NC4=O (mixture of isomers)" unit_of_measure=% measured_value=92.3
compound="N[C@@]1(C(=O)O)CC2CC1n1c3ccccc3c3c4c(c5c6ccccc6n2c5c31)C(=O)NC4=O (some centres unmarked)" unit_of_measure=% measured_value=94.7
compound="COc1ccc(CN2C(=O)c3c(c4c5ccccc5n5c4c4c3c3ccccc3n4C3CC5[C@@H](N4CCOCC4)C3)C2=O)cc1 (some centres unmarked)" unit_of_measure=% measured_value=67.6

I. O=C1NC(=O)c2c1c1c3ccccc3n3c1c1c2c2ccccc2n1C1CC3C[C@@H]1N1CCOCC1 (mixture of isomers)
II. N#C[C@]1(N)CC2CC1n1c3ccccc3c3c4c(c5c6ccccc6n2c5c31)C(=O)NC4=O (mixture of isomers)
Exam item: Could you kindly indicate whether I or II has the higher inhibition at 10 µM value? Choose, then provide that item's label.
Marked response: II

Value source: patent US20070149481A1
